Biological target: T1, wild-type human Ang-2 (hAng-2-WT) (human, UniProt O15123 19-496)
T1 construct: called full-length wild-type; also called Full-length wild-type human Ang-2
T1 sequence: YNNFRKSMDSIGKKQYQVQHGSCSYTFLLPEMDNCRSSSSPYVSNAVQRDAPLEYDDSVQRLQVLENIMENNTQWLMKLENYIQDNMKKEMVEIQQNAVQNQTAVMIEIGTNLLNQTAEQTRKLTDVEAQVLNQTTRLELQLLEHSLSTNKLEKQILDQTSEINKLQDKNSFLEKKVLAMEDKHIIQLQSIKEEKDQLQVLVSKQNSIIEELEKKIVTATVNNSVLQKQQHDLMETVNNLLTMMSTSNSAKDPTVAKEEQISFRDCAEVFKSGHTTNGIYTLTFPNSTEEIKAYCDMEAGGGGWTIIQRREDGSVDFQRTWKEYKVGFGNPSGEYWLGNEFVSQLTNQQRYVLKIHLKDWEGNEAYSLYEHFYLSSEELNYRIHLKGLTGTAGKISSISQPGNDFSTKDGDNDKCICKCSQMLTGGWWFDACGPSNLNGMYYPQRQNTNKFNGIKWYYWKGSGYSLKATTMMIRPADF
Experiment: SPR, captured Ab
# Lookup of reported pKd keyed by entry
A value of pKd is the negative decimal logarithm of a concentration given in moles per litre.

binder	value.observed
H1H728N (antibody, V domains shown) VH: EVQLVESGGDLVQPGGSLRLSCTASGFTFSKYWMTWVRQAPGRGLEWVANIKEDGNEKYFLDSVKGRFTISRDNAKDLLFLQMNSLRGEDTAVYYCVRDRGIEVAGPFDYWGQGTLVTVSS VL: DIQMTQSPSTLSASVGDRVTVTCRASQTIINWLAWYQQKPGKAPKLLISKASSLESGVPSRFSGSGSGTEFTLTISSLQPDDFATYYCQQYNRYWTFGQGTMVEIK	10.37

Looking up H1H743N (antibody, V domains shown) VH: EVQLLESGGGLVQPGGSLRLSCAASGFTFRKYAMSWVRQAPGKGLEWVSVISVSGGNTYYADSVKGRFTISRDNSKNTLYLQLNSLRAEDTAVYYCAKDLTDIVLMVYVDYWGQGTLVTVSS VL: DIQMTQSPSSVSASVGDRVTITCRASQDIDRWLAWYQQKPGKAPKLLIYAASSLQSGVPSRFSGSGSGTDFTLTISTLQPEDFATYYCQQANSLPFTFGGGTKVEIK , I see its pKd listed as 11.02
